Values compiled from patent US12415830B2.

# TARGET_OF_ASSAY: GABAA1 (α1β2γ2) receptor (Homo sapiens, UniProt P14867+P47870)
# Construct: expressed in transfected cells
# Sequence (P14867 28-456): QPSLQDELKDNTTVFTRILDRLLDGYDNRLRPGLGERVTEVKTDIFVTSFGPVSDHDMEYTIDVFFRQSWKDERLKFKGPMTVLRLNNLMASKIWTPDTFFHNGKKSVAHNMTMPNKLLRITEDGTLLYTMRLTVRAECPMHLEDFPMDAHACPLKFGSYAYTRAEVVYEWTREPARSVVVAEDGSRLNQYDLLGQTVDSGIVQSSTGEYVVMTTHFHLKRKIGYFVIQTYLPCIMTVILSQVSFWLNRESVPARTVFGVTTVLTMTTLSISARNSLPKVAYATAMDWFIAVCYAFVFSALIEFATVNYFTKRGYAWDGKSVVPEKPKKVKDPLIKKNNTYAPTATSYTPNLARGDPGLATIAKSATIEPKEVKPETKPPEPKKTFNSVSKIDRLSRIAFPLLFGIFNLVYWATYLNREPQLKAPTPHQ
# Sequence (P47870 26-512): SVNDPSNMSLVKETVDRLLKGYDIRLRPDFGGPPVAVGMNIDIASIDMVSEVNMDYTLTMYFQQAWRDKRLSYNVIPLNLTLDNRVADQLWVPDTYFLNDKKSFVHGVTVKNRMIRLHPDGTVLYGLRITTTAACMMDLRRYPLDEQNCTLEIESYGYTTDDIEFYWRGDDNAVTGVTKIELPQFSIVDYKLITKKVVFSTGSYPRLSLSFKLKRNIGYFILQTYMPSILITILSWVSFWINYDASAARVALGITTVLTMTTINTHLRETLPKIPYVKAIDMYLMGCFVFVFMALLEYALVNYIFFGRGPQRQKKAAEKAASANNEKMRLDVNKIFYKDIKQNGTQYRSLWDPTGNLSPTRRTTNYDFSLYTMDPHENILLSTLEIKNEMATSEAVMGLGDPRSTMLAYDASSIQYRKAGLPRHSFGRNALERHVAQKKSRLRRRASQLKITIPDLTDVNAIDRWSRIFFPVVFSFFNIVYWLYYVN
# Sequence (P18507 40-475 partner): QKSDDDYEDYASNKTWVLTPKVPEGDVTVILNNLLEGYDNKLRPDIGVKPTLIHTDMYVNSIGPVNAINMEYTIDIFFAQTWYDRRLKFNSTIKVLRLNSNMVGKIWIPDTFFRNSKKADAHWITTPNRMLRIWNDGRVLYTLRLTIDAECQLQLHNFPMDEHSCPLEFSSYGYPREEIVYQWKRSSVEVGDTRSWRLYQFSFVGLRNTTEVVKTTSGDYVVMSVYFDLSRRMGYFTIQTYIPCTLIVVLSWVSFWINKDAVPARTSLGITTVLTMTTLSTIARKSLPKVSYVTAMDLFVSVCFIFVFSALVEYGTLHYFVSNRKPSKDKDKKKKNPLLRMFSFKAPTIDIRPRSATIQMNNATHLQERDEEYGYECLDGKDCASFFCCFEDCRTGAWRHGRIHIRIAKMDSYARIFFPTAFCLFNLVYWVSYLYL
# TEST_DETAILS: Patch-clamp electrophysiology on recombinant GABAA1 receptor in HEK293 cells, with 3 μM GABA
# Type: cell-based
# RUN_PARAMETERS: HEK293; 0.1 μM compound together with 3 μmol GABA; read-out: potency: ratio of the peak current on the GABAA1 receptor to the peak current in 100 μmol GABA
QUANTITY: Emax at 0.1 µM

Enquiry: Write down the reported Emax at 0.1 µM of `C[C@]12CC[C@@H](O)C[C@@H]1CC[C@@H]1[C@@H]2CC[C@]2(C)[C@@H](C(=O)CSc3cccs3)CCC[C@@H]12` , test system: GABAA1 (α1β2γ2) receptor (Homo sapiens, UniProt P14867+P47870).
Return: 0 to 20%

Enquiry: Write down the reported Emax at 0.1 µM of `C[C@@]1(O)CC[C@@]2(C)[C@@H](CC[C@@H]3[C@@H]2CC[C@]2(C)[C@@H](C(=O)Cn4nccn4)CCC[C@@H]32)C1` , test system: GABAA1 (α1β2γ2) receptor (Homo sapiens, UniProt P14867+P47870).
Return: 0 to 20%

Enquiry: Write down the reported Emax at 0.1 µM of `Cc1nnn(CC(=O)[C@H]2CCC[C@H]3[C@@H]4CC[C@H]5C[C@H](O)CC[C@]5(C)[C@H]4CC[C@]23C)n1` , test system: GABAA1 (α1β2γ2) receptor (Homo sapiens, UniProt P14867+P47870).
Return: 0 to 20%

Enquiry: Write down the reported Emax at 0.1 µM of `Cn1nnnc1SCC(=O)[C@H]1CCC[C@H]2[C@@H]3CC[C@H]4C[C@](C)(O)CC[C@]4(C)[C@H]3CC[C@]12C` , test system: GABAA1 (α1β2γ2) receptor (Homo sapiens, UniProt P14867+P47870).
Return: 0 to 20%

Enquiry: Write down the reported Emax at 0.1 µM of `C[C@]12CC[C@@H](O)C[C@@H]1CC[C@@H]1[C@@H]2CC[C@]2(C)[C@@H](C(=O)CO)CCC[C@@H]12` , test system: GABAA1 (α1β2γ2) receptor (Homo sapiens, UniProt P14867+P47870).
Return: 0 to 20%

Enquiry: Write down the reported Emax at 0.1 µM of `COc1ncnc2ncn(CC(=O)[C@H]3CCC[C@H]4[C@@H]5CC[C@H]6C[C@H](O)CC[C@]6(C)[C@H]5CC[C@]34C)c12` , test system: GABAA1 (α1β2γ2) receptor (Homo sapiens, UniProt P14867+P47870).
Return: 0 to 20%

Enquiry: Write down the reported Emax at 0.1 µM of `C[C@]12CC[C@@H](O)C[C@@H]1CC[C@@H]1[C@@H]2CC[C@]2(C)[C@@H](C(=O)Cn3ncc4ccccc43)CCC[C@@H]12` , test system: GABAA1 (α1β2γ2) receptor (Homo sapiens, UniProt P14867+P47870).
Return: 20 to 40%

Enquiry: Write down the reported Emax at 0.1 µM of `C[C@]12CC[C@@H](O)C[C@@H]1CC[C@@H]1[C@@H]2CC[C@]2(C)[C@@H](C(=O)Cn3ccnc3)CCC[C@@H]12` , test system: GABAA1 (α1β2γ2) receptor (Homo sapiens, UniProt P14867+P47870).
Return: 0 to 20%

Enquiry: Write down the reported Emax at 0.1 µM of `C[C@@]1(O)CC[C@@]2(C)[C@@H](CC[C@@H]3[C@@H]2CC[C@]2(C)[C@@H](C(=O)COc4ncnc5c(F)cccc45)CCC[C@@H]32)C1` , test system: GABAA1 (α1β2γ2) receptor (Homo sapiens, UniProt P14867+P47870).
Return: 0 to 20%

Enquiry: Write down the reported Emax at 0.1 µM of `C[C@@]1(O)CC[C@H]2[C@H](CC[C@@H]3[C@@H]2CC[C@]2(C)[C@@H](C(=O)Cn4ncnn4)CCC[C@@H]32)C1` , test system: GABAA1 (α1β2γ2) receptor (Homo sapiens, UniProt P14867+P47870).
Return: 0 to 20%

Enquiry: Write down the reported Emax at 0.1 µM of `C[C@]12CC[C@@H](O)C[C@@H]1CC[C@@H]1[C@@H]2CC[C@]2(C)[C@@H](C(=O)Cn3cc(C#N)cn3)CCC[C@@H]12` , test system: GABAA1 (α1β2γ2) receptor (Homo sapiens, UniProt P14867+P47870).
Return: 0 to 20%

Enquiry: Write down the reported Emax at 0.1 µM of `C[C@@]1(O)CC[C@@]2(C)[C@@H](CC[C@@H]3[C@@H]2CC[C@]2(C)[C@@H](C(=O)COc4ccc5ccccc5n4)CCC[C@@H]32)C1` , test system: GABAA1 (α1β2γ2) receptor (Homo sapiens, UniProt P14867+P47870).
Return: 0 to 20%

Enquiry: Write down the reported Emax at 0.1 µM of `C[C@]12CC[C@@H](O)C[C@@H]1CC[C@@H]1[C@@H]2CC[C@]2(C)[C@@H](C(=O)Cn3ccc(C#N)n3)CCC[C@@H]12` , test system: GABAA1 (α1β2γ2) receptor (Homo sapiens, UniProt P14867+P47870).
Return: 20 to 40%

---

# TARGET_OF_ASSAY: GABAA1 (α1β2γ2) receptor (Homo sapiens, UniProt P14867+P47870)
# Construct: expressed in transfected cells
# TEST_DETAILS: Patch-clamp electrophysiology on recombinant GABAA1 receptor in HEK293 cells, with 3 μM GABA
# Assay type: cell-based
# RUN_PARAMETERS: HEK293; together with 3 μmol GABA; relative to peak current in 100 μmol GABA
QUANTITY: Emax (%)
Report only the number, with the unit % understood.

Enquiry: Request the reported Emax associated with C[C@@]1(O)CC[C@H]2[C@H](CC[C@@H]3[C@@H]2CC[C@]2(C)[C@@H](C(=O)Cn4cc(C#N)cn4)CC[C@@H]32)C1 [The control, reference compound]
Return: 84.2

Enquiry: Request the reported Emax associated with C[C@]12CC[C@@H](O)C[C@@H]1CC[C@@H]1[C@@H]2CC[C@]2(C)[C@@H](C(=O)Cn3ncnn3)CCC[C@@H]12 [KH004]
Return: 106

Enquiry: Request the reported Emax associated with C[C@]12CC[C@@H](O)C[C@@H]1CC[C@@H]1[C@@H]2CC[C@]2(C)[C@@H](C(=O)Cn3cc(C#N)cn3)CCC[C@@H]12 [KH002]
Return: 74.6

---

# TARGET_OF_ASSAY: GABAA1 (α1β2γ2) receptor (Homo sapiens, UniProt P14867+P47870)
# Construct: expressed in transfected cells
# TEST_DETAILS: Patch-clamp electrophysiology on recombinant GABAA1 receptor in HEK293 cells, with 3 μM GABA
# Format: cell-based
# RUN_PARAMETERS: HEK293; 1 μM compound together with 3 μmol GABA; read-out: potency: ratio of the peak current on the GABAA1 receptor to the peak current in 100 μmol GABA
QUANTITY: Emax at 1 µM

Enquiry: Request the reported Emax at 1 µM associated with C[C@@]1(O)CC[C@H]2[C@H](CC[C@@H]3[C@@H]2CC[C@]2(C)[C@@H](C(=O)COc4ncnc5cnc(F)cc45)CCC[C@@H]32)C1 [KH048]
Return: 0 to 20%

Enquiry: Request the reported Emax at 1 µM associated with C[C@]12CC[C@@H](O)C[C@@H]1CC[C@@H]1[C@@H]2CC[C@]2(C)[C@@H](C(=O)CSc3cccs3)CCC[C@@H]12 [KH016]
Return: 40 to 60%

Enquiry: Request the reported Emax at 1 µM associated with C[C@@]1(O)CC[C@@]2(C)[C@@H](CC[C@@H]3[C@@H]2CC[C@]2(C)[C@@H](C(=O)COc4nc[nH]n4)CCC[C@@H]32)C1 [KH034]
Return: 0 to 20%

Enquiry: Request the reported Emax at 1 µM associated with C[C@@]1(O)CC[C@@]2(C)[C@@H](CC[C@@H]3[C@@H]2CC[C@]2(C)[C@@H](C(=O)Cn4ccc(C#N)n4)CCC[C@@H]32)C1 [KH024]
Return: 40 to 60%

Enquiry: Request the reported Emax at 1 µM associated with C[C@@]1(O)CC[C@H]2[C@H](CC[C@@H]3[C@@H]2CC[C@]2(C)[C@@H](C(=O)Cn4ncnn4)CCC[C@@H]32)C1 [KH052]
Return: 0 to 20%

Enquiry: Request the reported Emax at 1 µM associated with C[C@]12CC[C@@H](O)C[C@@H]1CC[C@@H]1[C@@H]2CC[C@]2(C)[C@@H](C(=O)Cn3ccnn3)CCC[C@@H]12 [KH003]
Return: 60 to 80%

---

# TARGET_OF_ASSAY: GABAA4 (α4β3δ) receptor (Homo sapiens, UniProt P28472+P48169)
# Construct: expressed in transfected cells; host or cells: HEK293 (transient transfection, plasmids 1:1:1)
# Sequence (P48169 36-554): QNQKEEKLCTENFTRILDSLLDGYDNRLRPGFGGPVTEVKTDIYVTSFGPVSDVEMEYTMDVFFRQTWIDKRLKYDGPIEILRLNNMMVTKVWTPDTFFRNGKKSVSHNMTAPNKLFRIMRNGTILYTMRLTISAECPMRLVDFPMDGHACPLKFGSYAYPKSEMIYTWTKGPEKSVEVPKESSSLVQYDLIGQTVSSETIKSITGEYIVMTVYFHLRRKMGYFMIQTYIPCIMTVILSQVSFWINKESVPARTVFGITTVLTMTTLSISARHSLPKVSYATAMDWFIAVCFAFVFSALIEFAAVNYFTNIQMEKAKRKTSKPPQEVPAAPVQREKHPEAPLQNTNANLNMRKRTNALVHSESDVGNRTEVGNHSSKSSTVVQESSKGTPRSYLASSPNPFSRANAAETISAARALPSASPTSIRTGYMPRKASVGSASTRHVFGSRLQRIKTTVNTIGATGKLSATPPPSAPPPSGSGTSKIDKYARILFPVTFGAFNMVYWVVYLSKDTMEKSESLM
# Sequence (P28472 26-473): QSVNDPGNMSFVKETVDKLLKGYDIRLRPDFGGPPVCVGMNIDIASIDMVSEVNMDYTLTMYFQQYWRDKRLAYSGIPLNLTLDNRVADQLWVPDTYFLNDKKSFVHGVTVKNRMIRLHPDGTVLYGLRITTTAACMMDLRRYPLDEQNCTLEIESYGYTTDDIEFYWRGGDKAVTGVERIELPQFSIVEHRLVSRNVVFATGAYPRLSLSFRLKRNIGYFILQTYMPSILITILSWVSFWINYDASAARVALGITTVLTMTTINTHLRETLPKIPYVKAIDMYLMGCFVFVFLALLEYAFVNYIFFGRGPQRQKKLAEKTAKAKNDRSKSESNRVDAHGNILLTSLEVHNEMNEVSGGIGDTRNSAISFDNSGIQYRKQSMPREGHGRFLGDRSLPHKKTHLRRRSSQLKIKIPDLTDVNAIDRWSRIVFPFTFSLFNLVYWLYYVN
# Sequence (O14764 25-452 partner): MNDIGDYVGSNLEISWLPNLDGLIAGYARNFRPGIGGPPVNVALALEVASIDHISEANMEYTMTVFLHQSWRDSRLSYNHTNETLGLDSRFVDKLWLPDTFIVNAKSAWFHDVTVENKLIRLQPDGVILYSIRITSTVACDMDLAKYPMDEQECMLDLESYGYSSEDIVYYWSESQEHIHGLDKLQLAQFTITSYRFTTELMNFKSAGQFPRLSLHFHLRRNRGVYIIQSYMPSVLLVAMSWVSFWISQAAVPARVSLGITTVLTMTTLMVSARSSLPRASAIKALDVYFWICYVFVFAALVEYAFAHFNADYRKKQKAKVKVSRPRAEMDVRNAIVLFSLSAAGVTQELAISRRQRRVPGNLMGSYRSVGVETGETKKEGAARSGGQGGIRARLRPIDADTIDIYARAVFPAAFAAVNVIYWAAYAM
# TEST_DETAILS: Patch-clamp electrophysiology, compound alone or with 10 nM GABA (Table 3)
# Type: cell-based
# RUN_PARAMETERS: with 10 nM GABA; read-out: EC50 (with 10 nM GABA)
# Description: The present invention applies the two subunits of the recombinant GABAA receptor: α1β2γ2 and α4β3δ to evaluate the potency of the exemplary compounds in vitro by patch-clamp electrophysiology. […] Whole cell model recorded GABAA4 receptors current experimental protocol was indicated as follows: When sealing, cell was at a holding potential of −70 mV, with gap-free mode to record the peak current. […]
QUANTITY: EC50 (nM)
Report only the number, with the unit nM understood.

Enquiry: Request the reported EC50 associated with `C[C@]12CC[C@@H](O)C[C@@H]1CC[C@@H]1[C@@H]2CC[C@]2(C)[C@@H](C(=O)Cn3ncnn3)CCC[C@@H]12`
Return: 135

Enquiry: Request the reported EC50 associated with `C[C@@]1(O)CC[C@@]2(C)[C@@H](CC[C@@H]3[C@@H]2CC[C@]2(C)[C@@H](C(=O)Cn4ncnn4)CCC[C@@H]32)C1`
Return: 386

Enquiry: Request the reported EC50 associated with `C[C@@]1(O)CC[C@@]2(C)[C@@H](CC[C@@H]3[C@@H]2CC[C@]2(C)[C@@H](C(=O)COc4noc5ccccc45)CCC[C@@H]32)C1`
Return: 572
